- Tested Target: T1, cynoSIRPα (NP_001271679), Extracellular Domain + His-Tag (cynomolgus monkey)
- T1 construct: also called CySIRPα NP_001271679; not shown: His-Tag
- T1 chain: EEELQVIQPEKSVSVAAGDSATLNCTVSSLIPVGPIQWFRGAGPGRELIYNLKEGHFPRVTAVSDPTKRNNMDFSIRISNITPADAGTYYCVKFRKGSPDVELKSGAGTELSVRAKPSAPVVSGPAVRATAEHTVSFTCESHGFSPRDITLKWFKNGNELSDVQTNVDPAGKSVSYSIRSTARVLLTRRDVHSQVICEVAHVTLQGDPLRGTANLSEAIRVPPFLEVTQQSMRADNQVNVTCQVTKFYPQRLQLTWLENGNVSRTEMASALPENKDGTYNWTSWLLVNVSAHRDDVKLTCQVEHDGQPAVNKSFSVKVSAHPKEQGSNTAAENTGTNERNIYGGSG
- Method Description: SPR, antibody captured on Protein A/G, ECD-His analyte, steady-state fit
- Protocol: The binding kinetics of anti-SIRPα antibodies to various SIRPα analytes are determined by surface plasmon resonance (SPR) using a Biacore 8K+(Cytiva). 1×HBS-EP+(Cytiva) is used as running buffer and for all the dilutions unless stated otherwise. […]
# key: entry, value: pKd
// pKd: -log10(molar conc.)

{"Binder": "Antibody A5 (antibody, human IgG1, kappa, L234A L235A, V domains shown) VH: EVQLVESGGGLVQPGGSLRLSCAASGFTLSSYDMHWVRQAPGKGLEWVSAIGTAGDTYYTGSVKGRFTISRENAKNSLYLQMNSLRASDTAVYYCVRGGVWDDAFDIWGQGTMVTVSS VL: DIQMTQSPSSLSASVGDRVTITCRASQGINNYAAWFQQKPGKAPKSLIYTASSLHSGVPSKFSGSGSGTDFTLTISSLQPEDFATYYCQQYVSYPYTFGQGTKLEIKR", "pKd": 6.18}
{"Binder": "Antibody A7 (antibody, human IgG1, kappa, L234A L235A, V domains shown) VH: EVQLVESGGGLVQPGGSLRLSCAASGFTLSSYDMHWVRQATGKGLEWVSAIGTAGDTYYTGSVKGRFTISRENAKNSLYLQMNSLRAGDTAVYYCVRGGVWDDAFDIWGQGTMVTVSS VL: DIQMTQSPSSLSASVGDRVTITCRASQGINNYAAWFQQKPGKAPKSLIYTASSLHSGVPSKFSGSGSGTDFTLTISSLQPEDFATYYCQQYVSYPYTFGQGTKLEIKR", "pKd": 6.13}
{"Binder": "Antibody A8 (antibody, human IgG1, kappa, L234A L235A, V domains shown) VH: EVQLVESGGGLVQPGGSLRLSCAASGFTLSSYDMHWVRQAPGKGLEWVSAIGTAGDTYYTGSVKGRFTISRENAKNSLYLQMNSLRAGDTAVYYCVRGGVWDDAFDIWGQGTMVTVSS VL: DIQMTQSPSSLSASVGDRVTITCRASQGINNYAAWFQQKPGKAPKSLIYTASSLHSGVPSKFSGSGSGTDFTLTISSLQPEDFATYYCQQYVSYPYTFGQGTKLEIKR", "pKd": 6.19}
{"Binder": "Antibody A3 (antibody, human IgG1, kappa, L234A L235A, V domains shown) VH: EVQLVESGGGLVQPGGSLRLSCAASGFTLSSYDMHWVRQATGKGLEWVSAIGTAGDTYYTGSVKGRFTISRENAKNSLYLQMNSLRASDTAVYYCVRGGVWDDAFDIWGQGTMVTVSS VL: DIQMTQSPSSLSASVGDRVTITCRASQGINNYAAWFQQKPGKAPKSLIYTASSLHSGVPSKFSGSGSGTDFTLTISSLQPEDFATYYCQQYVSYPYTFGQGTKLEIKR", "pKd": 6.07}

Shifting focus to the binder that follows.
Report pKd for Antibody A6 (antibody, human IgG1, kappa, L234A L235A, V domains shown) VH: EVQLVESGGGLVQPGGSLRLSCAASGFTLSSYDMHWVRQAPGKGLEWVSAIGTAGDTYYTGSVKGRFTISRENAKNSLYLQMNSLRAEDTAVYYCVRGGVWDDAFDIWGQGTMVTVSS VL: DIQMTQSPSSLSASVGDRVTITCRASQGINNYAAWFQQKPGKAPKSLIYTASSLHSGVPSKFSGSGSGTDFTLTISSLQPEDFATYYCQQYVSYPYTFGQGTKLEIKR please.
6.16
